conditions: in water, 323.15 K
endpoint_name: solubility (mole fraction)
Give your answer as a number; write no unit.

Ask: Tell me its solubility (mole fraction) given C=NCC#N as the entry.
Result: 0.00371

====

details: in n-propanol, 293.15 K
endpoint_name: solubility (mole fraction)
Give your answer as a number; write no unit.

Ask: Tell me its solubility (mole fraction) given C=NCC#N as the entry.
Result: 0.00183

====

conditions: in methanol, 303.15 K
endpoint_name: solubility (mole fraction)
Give your answer as a number; write no unit.

Ask: Tell me its solubility (mole fraction) given C=NCC#N as the entry.
Result: 0.0107

====

details: in ethanol, 308.15 K
endpoint_name: solubility (mole fraction)

Ask: Tell me its solubility (mole fraction) given C=NCC#N as the entry.
Result: 0.00501

====

settings: in n-butanol, 323.15 K
endpoint_name: solubility (mole fraction)

Ask: Tell me its solubility (mole fraction) given C=NCC#N as the entry.
Result: 0.00224

====

details: in water, 318.15 K
endpoint_name: solubility (mole fraction)
Give your answer as a number; write no unit.

Ask: Tell me its solubility (mole fraction) given C=NCC#N as the entry.
Result: 0.0032

====

details: in ethanol, 313.15 K
endpoint_name: solubility (mole fraction)

Ask: Tell me its solubility (mole fraction) given C=NCC#N as the entry.
Result: 0.00595

====

settings: in water, 308.15 K
endpoint_name: solubility (mole fraction)
Give your answer as a number; write no unit.

Ask: Tell me its solubility (mole fraction) given C=NCC#N as the entry.
Result: 0.00235

====

conditions: in methanol, 308.15 K
endpoint_name: solubility (mole fraction)
Give your answer as a number; write no unit.

Ask: Tell me its solubility (mole fraction) given C=NCC#N as the entry.
Result: 0.0125

====

details: in ethanol, 293.15 K
endpoint_name: solubility (mole fraction)

Ask: Tell me its solubility (mole fraction) given C=NCC#N as the entry.
Result: 0.00303

====

conditions: in methanol, 288.15 K
endpoint_name: solubility (mole fraction)
Give your answer as a number; write no unit.

Ask: Tell me its solubility (mole fraction) given C=NCC#N as the entry.
Result: 0.00624

====

settings: in n-propanol, 313.15 K
endpoint_name: solubility (mole fraction)
Give your answer as a number; write no unit.

Ask: Tell me its solubility (mole fraction) given C=NCC#N as the entry.
Result: 0.0037

====

details: in n-propanol, 303.15 K
endpoint_name: solubility (mole fraction)
Give your answer as a number; write no unit.

Ask: Tell me its solubility (mole fraction) given C=NCC#N as the entry.
Result: 0.00266

====

details: in n-butanol, 293.15 K
endpoint_name: solubility (mole fraction)
Give your answer as a number; write no unit.

Ask: Tell me its solubility (mole fraction) given C=NCC#N as the entry.
Result: 0.000819

====

details: in n-propanol, 288.15 K
endpoint_name: solubility (mole fraction)

Ask: Tell me its solubility (mole fraction) given C=NCC#N as the entry.
Result: 0.00151

====

conditions: in water, 278.15 K
endpoint_name: solubility (mole fraction)
Give your answer as a number; write no unit.

Ask: Tell me its solubility (mole fraction) given C=NCC#N as the entry.
Result: 0.00083

====

settings: in n-butanol, 318.15 K
endpoint_name: solubility (mole fraction)
Give your answer as a number; write no unit.

Ask: Tell me its solubility (mole fraction) given C=NCC#N as the entry.
Result: 0.00191
